pIC50: −log10 of the molar value.
// compounds with pIC50 on Autotaxin (Homo sapiens, UniProt Q13822), multi-source literature
Would you mind labelling by pIC50? At or over 8 is y, under is n.

Illustrative cases are given below, each with its answer.
# compound, assignedLabel
measured = [
    ("CS(=O)(=O)c1cc(Cl)cc(COC(=O)N2C[C@@H]3CN(C(=O)c4ccc5[nH]nnc5c4)C[C@@H]3C2)c1", "n"),
    ("O=C(OCc1cc(Cl)cc(Cl)c1)N1C[C@@H]2CN(S(=O)(=O)c3ccc4[nH]c(=O)oc4c3)C[C@@H]2C1", "n"),
    ("O=C(/C=C/c1ccc(-c2cccnc2)cc1)N1C[C@@H]2CN(C(=O)c3ccc4[nH]nnc4c3)C[C@H]2C1", "n"),
]

Request: Record `O=C(Cn1cc(-c2cnc(NC3Cc4ccccc4C3)nc2)c(-c2ccncc2)n1)N1CCc2[nH]nnc2C1` ; criterion: pIC50 no lower than 8. Met?
Response: y

Request: And the next one, `O=C(OCc1ccc(OC(F)(F)F)cc1F)N1C[C@@H]2CN(C(=O)c3ccc4[nH]nnc4c3)C[C@H]2C1` ?
Response: y

Request: And the next one, `O=C(c1ccc2[nH]nnc2c1)N1C[C@H]2CN(C(=O)N3CCN(c4ccc(Cl)cc4)CC3)C[C@@H]2C1` ?
Response: n

Request: And the next one, `N#Cc1ccc(OCC(=O)N2C[C@@H]3CN(C(=O)c4ccc5[nH]nnc5c4)C[C@H]3C2)cc1` ?
Response: n

Request: And the next one, CC(C)c1cc(Cl)ccc1OCC(=O)N1CCC2(CC1)CN(C(=O)C1CCc3[nH]nnc3C1)C2 (centres unmarked) ?
Response: n

Request: And the next one, `O=C(NCc1cc(Cl)cc(Cl)c1)N1CCC2(CC1)CN(C(=O)c1ccc3[nH]nnc3c1)C2` ?
Response: n

Request: And the next one, `Cn1c(COc2cc(Cl)c(C#N)cc2-c2cc(Cl)ccc2F)n[nH]c1=O` ?
Response: y

---

// molecules with IC50 on UniProt Q13822, multi-source literature

Reference set, count: 4
# molecule, result
rows = [
    ("CCCCC1CN(CC2(c3ccc(OC)cc3)CC2)C(=O)c2cc(-c3ccc(Cl)cc3)nn21 (stereo not shown)", "≥ 1 µM"),
    ("COCCN(C)C(=O)c1ccc(F)c(-c2cc(Cl)c(C)cc2OCc2n[nH]c3cnccc23)c1", "0.004 µM"),
    ("CC1(C)C(NCc2ccc3c(C(F)(F)F)c(O[C@H]4CC[C@@H](C(F)(F)F)CC4)ccc3c2)CC1C(=O)O (stereo partly shown)", "≤ 0.5 µM"),
    ("Cc1c(Sc2cccc(C(=O)O)c2)c2ccc(Cl)c(F)c2n1CC(=O)N1CCCCC1", "≤ 0.5 µM"),
]

For every item in the list below, what is its measured IC50?
1. O=C(O)C1CC(NCc2ccc3c(C(F)(F)F)c(O[C@H]4CC[C@@H](C(F)(F)F)CC4)ccc3c2)C12CCCCC2 (stereo partly shown)
2. CCNc1cc(Cl)cc(CO)c1-c1cc2n(n1)[C@@H](C)CN(Cc1ccc(C#N)cc1)C2=O
3. CCOc1cc(C(=O)N2C[C@@H]3CN(C(=O)c4ccc5[nH]nnc5c4F)C[C@H]3C2)nc2ccccc12

Response:
1. ≤ 0.5 µM
2. < 0.01 µM
3. 0.021 µM

---

// molecules with pIC50 on UniProtKB Q13822, multi-source literature
Give bare numbers, as −log10 of the molar value.

# molecule, pIC50
rows = [
    ("O=C(OCc1ccc(OC(F)(F)F)c(F)c1)N1CC2(CCN(C(=O)C3CCc4[nH]nnc4C3)CC2)C1 (stereo not shown)", 7.89),
]

For every item in the list below, what is its measured pIC50?
1. CC(=O)Nc1ccc(C(=O)N2C[C@H]3CN(C(=O)OCc4cc(Cl)cc(Cl)c4)C[C@H]3C2)nc1
2. O=C(OCc1ccc(Cl)nc1)N1CCC2(CC1)CN(C(=O)c1ccc3[nH]nnc3c1)C2
3. COCCOc1nc(C(=O)N2C[C@@H]3[C@H]4CN(C(=O)c5ccc6[nH]nnc6c5)C[C@H]4[C@@H]3C2)cc2ccccc12

Response:
1. 5.82
2. 5.30
3. 8.11

Request: Endpoint output: pIC50 of `COc1ccc(/C=C/C(=O)N2CC[C@@H]3CN(C(=O)c4ccc5[nH]nnc5c4)C[C@@H]3CC2)cc1F` . Value?
Response: 7.92

---

// compounds with IC50 on Autotaxin (Homo sapiens, UniProt Q13822), multi-source literature

# compound, endpoint, result
measured = [
    ("O=C(c1cnc(NC2Cc3ccc(Cl)cc3C2)nc1)N1CCC12COC2 (stereo not drawn)", "IC50", "< 100 nM"),
    ("COc1ccc2c(c1)CCN2C(=O)Cn1c(C)c(Sc2cccc(C(=O)O)c2)c2ccc(Cl)c(F)c21", "IC50", "≤ 500 nM"),
]

Consider now this further compound.
Request: Endpoint output: IC50 of CCCCCC1CN(CC(=O)Nc2cccnc2)C(=O)c2cc(-c3ccc(Cl)cc3)nn21 (stereo not drawn) . Value?
Response: 100 to 1000 nM

---

// compounds with log10(IC50) on UniProt:Q13822, multi-source literature
Scale: log10; quantity: IC50; unit before log: nM

Reference set, count: 7
# compoundString, log10(IC50)
data = [
    ("NS(=O)(=O)c1ccc(C(=O)N2C[C@H]3CN(C(=O)OCc4ccc(OC(F)(F)F)cc4)C[C@H]3C2)cc1", 0.48),
    ("Cc1cc(OCc2n[nH]c(=O)n2C)c(-c2cc(OC3CC3)ccc2F)cc1Cl", 0.00),
    ("O=C(OCc1ccc(OC(F)(F)F)cc1)N1C[C@@H]2CN(C(=O)N3CCc4[nH]nnc4C3)C[C@H]2C1", 1.15),
    ("O=C(NCc1c[nH]nn1)N1CC2(CCN(C(=O)OCc3ccc(OC(F)(F)F)cc3F)CC2)C1", 1.62),
    ("O=C(c1cc(OCC2CCOCC2)nc(C2CC2)c1)N1CCc2cc(C(=O)N3CCc4[nH]nnc4C3)nn2CC1", 0.95),
    ("Cc1cc(OCc2n[nH]c(=O)n2C)c(-c2cc(C(=O)N(C)C3CC3)ccc2F)cc1Cl", 1.00),
    ("O=C(OCc1cc(Cl)cc(Cl)c1)N1C[C@@H]2CN(C(=O)c3ccc4[nH]ccc4c3)C[C@@H]2C1", 1.95),
]

Consider now this further compound.
Request: Hi! What's the reported log10(IC50) for `O=C(/C=C/c1ccc(F)cc1F)N1CC[C@@H]2CN(C(=O)c3ccc4[nH]nnc4c3)C[C@@H]2CC1` on UniProt:Q13822?
Response: 1.53

---

// molecules with pIC50 on Autotaxin (Homo sapiens), multi-source literature
Answers are plain numbers, as −log10 of the molar value.

Reference set, count: 3
# compoundString, numericResult
rows = [
    ("O=C(c1ccc(-c2ccc(Cl)cc2)cc1)N1C[C@@H]2CN(C(=O)c3ccc4[nH]nnc4c3)C[C@H]2C1", 8.15),
    ("CC(C)Oc1cc(C(=O)N2C[C@H]3CN(C(=O)c4ccc(S(N)(=O)=O)cc4)C[C@H]3C2)cc2ccccc12", 7.85),
    ("Cn1c(COc2cc(Cl)c(C#N)cc2-c2cccc(C(=O)N3CCOCC3)c2)n[nH]c1=O", 7.40),
]

Consider now this further molecule.
Request: Endpoint output: pIC50 of `COc1ccc(/C=C/C(=O)N2CC[C@@H]3CN(C(=O)c4ccc5[nH]nnc5c4)C[C@@H]3CC2)c(C(F)(F)F)c1` . Value?
Response: 8.22

---

// molecules with IC50 on Autotaxin (Homo sapiens), multi-source literature
Answers are plain numbers, in nM.

# compoundString, numericResult
rows = [
    ("Cn1c(COc2cc(Cl)c(C#N)cc2-c2cccc(F)c2)n[nH]c1=O", 21),
    ("O=C(OCc1c[nH]nn1)N1C[C@H]2CCN(C(=O)c3cc(OCC4CCOCC4)nc(C4CC4)c3)CC[C@H]2C1", 6),
    ("O=C(OCc1cc(Cl)cc(Cl)c1)N1C[C@@H]2[C@H](C1)[C@H]1CN(C(=O)c3ccc4[nH]nnc4c3)C[C@@H]21", 4.5),
]

For every item in the list below, what is its measured IC50?
1. O=C(CCc1ccc(OC(F)(F)F)cc1)N1C[C@@H]2[C@H](C1)[C@H]1CN(C(=O)c3ccc4[nH]nnc4c3)C[C@@H]21
2. O=C(OCc1cc(Cl)cc(C(F)(F)F)c1)N1CCC2(CC1)CN(C(=O)c1ccc3[nH]nnc3c1)C2

Response:
[11, 8]

For every item in the list below, what is its measured IC50?
1. O=C(/C=C/c1ccc(OC(F)(F)F)cc1)N1CC[C@@H]2CN(C(=O)[C@@H]3CCc4[nH]nnc4C3)C[C@@H]2CC1
2. O=C(OCc1cccc(OC(F)(F)F)c1)N1C[C@@H]2CN(C(=O)c3ccc4[nH]nnc4c3)C[C@@H]2C1
3. NS(=O)(=O)c1ccc(S(=O)(=O)N2C[C@H]3CN(C(=O)OCc4cc(Cl)cc(Cl)c4)C[C@H]3C2)cc1

Response:
1: 5; 2: 122; 3: 31
